tested on: Acinetobacter baumannii strains; test: Antibiotic susceptibility test (CLSI disk diffusion test method, read per CLSI 2016); format: cell-based; settings: host strain YMC16/03/R4461; note: key: ‘S’ means susceptible; ‘I’ means intermediate; ‘R’ means resistant
QUANTITY KIND: susceptibility category (S/I/R)

smiles_notation=NCC[C@H](O)C(=O)N[C@@H]1C[C@H](N)[C@@H](O[C@H]2O[C@H](CN)[C@@H](O)[C@H](O)[C@H]2O)[C@H](O)[C@H]1O[C@H]1O[C@H](CO)[C@@H](O)[C@H](N)[C@H]1O system_under_test="Acinetobacter baumannii strains" test_value=R
smiles_notation=CN(C)c1ccc(O)c2c1C[C@H]1C[C@H]3[C@H](N(C)C)C(O)=C(C(N)=O)C(=O)[C@@]3(O)C(O)=C1C2=O system_under_test="Acinetobacter baumannii strains" test_value=S
smiles_notation=C[C@@H](O)[C@H]1C(=O)N2C(C(=O)O)=C(S[C@@H]3CN[C@H](C(=O)N(C)C)C3)[C@H](C)[C@H]12 system_under_test="Acinetobacter baumannii strains" test_value=R

====

test system: Acinetobacter baumannii strains; assay: Antibiotic susceptibility test (CLSI disk diffusion test method, read per CLSI 2016); assay type: cell-based; details: host strain YMC14/03/R122; note: key: ‘S’ means susceptible; ‘I’ means intermediate; ‘R’ means resistant
QUANTITY KIND: antibiotic susceptibility class

molecule="CCN1CCN(C(=O)N[C@@H](C(=O)N[C@@H]2C(=O)N3[C@@H]2SC(C)(C)[C@@H]3C(=O)O)c2ccccc2)C(=O)C1=O [Piperacillin, piperacillin]" quantity_kind="antibiotic susceptibility class" test_value=R
molecule="C[C@H]1COc2c(N3CCN(C)CC3)c(F)cc3c(=O)c(C(=O)O)cn1c23 [Levofloxacin, levofloxacin]" quantity_kind="antibiotic susceptibility class" test_value=R
molecule="CC(C)(O/N=C(\\C(=O)N[C@@H]1C(=O)N2C(C(=O)[O-])=C(C[n+]3ccccc3)CS[C@H]12)c1csc(N)n1)C(=O)O [Ceftazidime, ceftazidime]" quantity_kind="antibiotic susceptibility class" test_value=R
molecule="CO/N=C(\\C(=O)N[C@@H]1C(=O)N2C(C(=O)O)=C(COC(C)=O)CS[C@H]12)c1csc(N)n1 [Cefotaxime, cefotaxime]" quantity_kind="antibiotic susceptibility class" test_value=R
molecule="CN(C)c1ccc(O)c2c1C[C@H]1C[C@H]3[C@H](N(C)C)C(O)=C(C(N)=O)C(=O)[C@@]3(O)C(O)=C1C2=O [Minocycline, minocycline]" quantity_kind="antibiotic susceptibility class" test_value=S
molecule="C[C@@H](O)[C@H]1C(=O)N2C(C(=O)O)=C(S[C@@H]3CN[C@H](C(=O)N(C)C)C3)[C@H](C)[C@H]12 [Meropenem, meropenem]" quantity_kind="antibiotic susceptibility class" test_value=R
molecule="NCC[C@H](O)C(=O)N[C@@H]1C[C@H](N)[C@@H](O[C@H]2O[C@H](CN)[C@@H](O)[C@H](O)[C@H]2O)[C@H](O)[C@H]1O[C@H]1O[C@H](CO)[C@@H](O)[C@H](N)[C@H]1O [Amikacin, amikacin]" quantity_kind="antibiotic susceptibility class" test_value=S
molecule="C[C@@H](O)[C@H]1C(=O)N2C(C(=O)O)=C(SCCN=CN)C[C@H]12 [Imipenem, imipenem]" quantity_kind="antibiotic susceptibility class" test_value=R
molecule="CN(C)c1cc(NC(=O)CNC(C)(C)C)c(O)c2c1C[C@H]1C[C@H]3[C@H](N(C)C)C(O)=C(C(N)=O)C(=O)[C@@]3(O)C(O)=C1C2=O [Tigecycline, tigecycline]" quantity_kind="antibiotic susceptibility class" test_value=R

====

test system: Acinetobacter baumannii strains; assay: Antibiotic susceptibility test (CLSI disk diffusion test method, read per CLSI 2016); assay type: cell-based; conditions: host strain YMC14/01/R1752; note: key: ‘S’ means susceptible; ‘I’ means intermediate; ‘R’ means resistant
QUANTITY KIND: antibiotic susceptibility class

molecule="C[C@@H](O)[C@H]1C(=O)N2C(C(=O)O)=C(SCCN=CN)C[C@H]12 [Imipenem, imipenem]" test_value=R
molecule="C[C@H]1COc2c(N3CCN(C)CC3)c(F)cc3c(=O)c(C(=O)O)cn1c23 [Levofloxacin, levofloxacin]" test_value=R
molecule="CO/N=C(\\C(=O)N[C@@H]1C(=O)N2C(C(=O)O)=C(COC(C)=O)CS[C@H]12)c1csc(N)n1 [Cefotaxime, cefotaxime]" test_value=R
molecule="CC(C)(O/N=C(\\C(=O)N[C@@H]1C(=O)N2C(C(=O)[O-])=C(C[n+]3ccccc3)CS[C@H]12)c1csc(N)n1)C(=O)O [Ceftazidime, ceftazidime]" test_value=R
molecule="CN(C)c1ccc(O)c2c1C[C@H]1C[C@H]3[C@H](N(C)C)C(O)=C(C(N)=O)C(=O)[C@@]3(O)C(O)=C1C2=O [Minocycline, minocycline]" test_value=S
molecule="NCC[C@H](O)C(=O)N[C@@H]1C[C@H](N)[C@@H](O[C@H]2O[C@H](CN)[C@@H](O)[C@H](O)[C@H]2O)[C@H](O)[C@H]1O[C@H]1O[C@H](CO)[C@@H](O)[C@H](N)[C@H]1O [Amikacin, amikacin]" test_value=R
molecule="CN(C)c1cc(NC(=O)CNC(C)(C)C)c(O)c2c1C[C@H]1C[C@H]3[C@H](N(C)C)C(O)=C(C(N)=O)C(=O)[C@@]3(O)C(O)=C1C2=O [Tigecycline, tigecycline]" test_value=S
molecule="CCN1CCN(C(=O)N[C@@H](C(=O)N[C@@H]2C(=O)N3[C@@H]2SC(C)(C)[C@@H]3C(=O)O)c2ccccc2)C(=O)C1=O [Piperacillin, piperacillin]" test_value=R
molecule="C[C@@H](O)[C@H]1C(=O)N2C(C(=O)O)=C(S[C@@H]3CN[C@H](C(=O)N(C)C)C3)[C@H](C)[C@H]12 [Meropenem, meropenem]" test_value=R

====

test system: Acinetobacter baumannii strains; assay: Antibiotic susceptibility test (CLSI disk diffusion test method, read per CLSI 2016); assay type: cell-based; details: host strain YMC17/01/B10087; note: key: ‘S’ means susceptible; ‘I’ means intermediate; ‘R’ means resistant
QUANTITY KIND: susceptibility category (S/I/R)

molecule="C[C@@H](O)[C@H]1C(=O)N2C(C(=O)O)=C(SCCN=CN)C[C@H]12 [Imipenem, imipenem]" quantity_kind="susceptibility category (S/I/R)" test_value=R
molecule="CN(C)c1cc(NC(=O)CNC(C)(C)C)c(O)c2c1C[C@H]1C[C@H]3[C@H](N(C)C)C(O)=C(C(N)=O)C(=O)[C@@]3(O)C(O)=C1C2=O [Tigecycline, tigecycline]" quantity_kind="susceptibility category (S/I/R)" test_value=S
molecule="C[C@H]1COc2c(N3CCN(C)CC3)c(F)cc3c(=O)c(C(=O)O)cn1c23 [Levofloxacin, levofloxacin]" quantity_kind="susceptibility category (S/I/R)" test_value=R
molecule="NCC[C@H](O)C(=O)N[C@@H]1C[C@H](N)[C@@H](O[C@H]2O[C@H](CN)[C@@H](O)[C@H](O)[C@H]2O)[C@H](O)[C@H]1O[C@H]1O[C@H](CO)[C@@H](O)[C@H](N)[C@H]1O [Amikacin, amikacin]" quantity_kind="susceptibility category (S/I/R)" test_value=R
molecule="C[C@@H](O)[C@H]1C(=O)N2C(C(=O)O)=C(S[C@@H]3CN[C@H](C(=O)N(C)C)C3)[C@H](C)[C@H]12 [Meropenem, meropenem]" quantity_kind="susceptibility category (S/I/R)" test_value=R
molecule="CO/N=C(\\C(=O)N[C@@H]1C(=O)N2C(C(=O)O)=C(COC(C)=O)CS[C@H]12)c1csc(N)n1 [Cefotaxime, cefotaxime]" quantity_kind="susceptibility category (S/I/R)" test_value=R

====

tested on: Acinetobacter baumannii strains; experiment: Antibiotic susceptibility test (CLSI disk diffusion test method, read per CLSI 2016); type: cell-based; conditions: host strain YMC14/01/R921; note: key: ‘S’ means susceptible; ‘I’ means intermediate; ‘R’ means resistant
QUANTITY KIND: antibiotic susceptibility class

smiles_notation=CCN1CCN(C(=O)N[C@@H](C(=O)N[C@@H]2C(=O)N3[C@@H]2SC(C)(C)[C@@H]3C(=O)O)c2ccccc2)C(=O)C1=O quantity_kind="antibiotic susceptibility class" test_value=R
smiles_notation=CC(C)(O/N=C(\C(=O)N[C@@H]1C(=O)N2C(C(=O)[O-])=C(C[n+]3ccccc3)CS[C@H]12)c1csc(N)n1)C(=O)O quantity_kind="antibiotic susceptibility class" test_value=R
smiles_notation=CN(C)c1cc(NC(=O)CNC(C)(C)C)c(O)c2c1C[C@H]1C[C@H]3[C@H](N(C)C)C(O)=C(C(N)=O)C(=O)[C@@]3(O)C(O)=C1C2=O quantity_kind="antibiotic susceptibility class" test_value=S
smiles_notation=C[C@@H](O)[C@H]1C(=O)N2C(C(=O)O)=C(S[C@@H]3CN[C@H](C(=O)N(C)C)C3)[C@H](C)[C@H]12 quantity_kind="antibiotic susceptibility class" test_value=R
smiles_notation=C[C@H]1COc2c(N3CCN(C)CC3)c(F)cc3c(=O)c(C(=O)O)cn1c23 quantity_kind="antibiotic susceptibility class" test_value=R
smiles_notation=C[C@@H](O)[C@H]1C(=O)N2C(C(=O)O)=C(SCCN=CN)C[C@H]12 quantity_kind="antibiotic susceptibility class" test_value=R
smiles_notation=CO/N=C(\C(=O)N[C@@H]1C(=O)N2C(C(=O)O)=C(COC(C)=O)CS[C@H]12)c1csc(N)n1 quantity_kind="antibiotic susceptibility class" test_value=R
smiles_notation=CN(C)c1ccc(O)c2c1C[C@H]1C[C@H]3[C@H](N(C)C)C(O)=C(C(N)=O)C(=O)[C@@]3(O)C(O)=C1C2=O quantity_kind="antibiotic susceptibility class" test_value=S
smiles_notation=NCC[C@H](O)C(=O)N[C@@H]1C[C@H](N)[C@@H](O[C@H]2O[C@H](CN)[C@@H](O)[C@H](O)[C@H]2O)[C@H](O)[C@H]1O[C@H]1O[C@H](CO)[C@@H](O)[C@H](N)[C@H]1O quantity_kind="antibiotic susceptibility class" test_value=S
